Tested on: B6C3F1 mice, B16 melanoma ip, median survival T/C
test: NCI In Vivo Anticancer Drug Screen. Data for tumor model B16 Melanoma (intraperitoneal) in B6C3F1 mice
run.conditions: endpoint: median survival time; dose: 6.25 mg/kg/injection; schedule: Q01DX009 (ip); vehicle: other; higher = longer survival
Inconclusive results and toxic doses are left out.

compound	T/C
CN(C)N=Nc1ccnc2ccc(I)cc12	115 % of control
CN(C)N=Nc1ccnc2ccc(Br)cc12	114 % of control
Cc1ccc2c(c1)Sc1ccc(N=NN(C)C)cc1N2C	100 % of control
CCCn1cc2c3c(cccc31)C1C=C(C)CN(C)C1C2 (stereo not drawn)	118 % of control
CC1(C)N=C(N)N=C(N)N1c1ccc(CCCCc2ccc(S(=O)(=O)F)cc2Cl)c(Cl)c1	109 % of control
c1ccc2c3c(c4c(c2c1)CN(C1CCCCC1)CO4)OCN(C1CCCCC1)C3	89 % of control
O=C(NC(Cc1cccc(F)c1)C(=O)O)c1ccccc1 (stereo not drawn)	104 % of control
CN(C)N=Nc1cccc2c1N(C)c1ccc(Cl)cc1S2	109 % of control

* * *

# Lookup of reported T/C keyed by entry
Test system: B6C3F1 mice, B16 melanoma ip, median survival T/C
test: NCI In Vivo Anticancer Drug Screen. Data for tumor model B16 Melanoma (intraperitoneal) in B6C3F1 mice
run.conditions: endpoint: median survival time; dose: 200.0 mg/kg/injection; schedule: Q01DX009 (ip); vehicle: saline with Tween-80; higher = longer survival
Inconclusive results and toxic doses are left out. Where a SMILES comes first, the peptide text is derived from it.
experimental.endpoint: T/C

molecule	experimental.result
Cc1ccc(NC(=O)Oc2ccc(Br)cc2Br)c([N+](=O)[O-])c1	103 % of control
CC1(C)OC1CS(=O)c1ccccc1 (configuration not stated)	90 % of control
CCCCCC#CC1OC12CCCCC2 (configuration not stated)	93 % of control
O=C(NCc1ccccc1)c1cccnc1	94 % of control
COc1ccc(C(C)c2cc3c(cc2OC)OCO3)cc1 (configuration not stated)	104 % of control
O=CN(SSN(C=O)C1CCCCC1)C1CCCCC1	97 % of control
CC(=O)NC(Cc1ccc(F)cc1)C(=O)O (configuration not stated)	110 % of control
COc1nc2c(=O)[nH]c(N)nc2n1C1OC(CO)C(O)C1O (configuration not stated)	93 % of control
CC(=O)NC(Cc1ccccc1)C(=O)NC(Cc1ccccc1)C(=O)O (stereo not drawn) (Ac-Phe-Phe-OH; configuration not given here)	104 % of control
COc1cccc(C2NC(=O)c3c(n[nH]c3N)S2)c1O (configuration not stated)	95 % of control
O=C1NC(O)c2ccccc2O1 (configuration not stated)	114 % of control
COCCCNC1=C(C#N)C(=O)NC(c2cccc([N+](=O)[O-])c2)S1 (configuration not stated)	111 % of control

* * *

Tested on: B6C3F1 mice, B16 melanoma ip, median survival T/C
test: NCI In Vivo Anticancer Drug Screen. Data for tumor model B16 Melanoma (intraperitoneal) in B6C3F1 mice
run.conditions: endpoint: median survival time; dose: 100.0 mg/kg/injection; schedule: Q01DX009 (ip); vehicle: saline; higher = longer survival
Toxic doses and inconclusive results are not listed.

compound	system.name	T/C
O=c1[nH]cnc2c1nnn2C1OC(CO)C(O)C1O (stereo not given)	B6C3F1 mice, B16 melanoma ip, median survival T/C	104 % of control
S=C(S)NN1CCOCC1	B6C3F1 mice, B16 melanoma ip, median survival T/C	98 % of control
NC(Cn1ccc(=O)c(O)c1)C(=O)O (stereo not given)	B6C3F1 mice, B16 melanoma ip, median survival T/C	105 % of control
CC(=O)OCC1OC(n2cc(CBr)nn2)C(OC(C)=O)C(OC(C)=O)C1OC(C)=O (stereo not given)	B6C3F1 mice, B16 melanoma ip, median survival T/C	105 % of control
Cc1ccccc1N(CC1CO1)CC1CO1 (stereo not given)	B6C3F1 mice, B16 melanoma ip, median survival T/C	116 % of control
COC(=O)c1[nH]c(=O)[nH]c(=O)c1F	B6C3F1 mice, B16 melanoma ip, median survival T/C	94 % of control
Cc1nnc(SCC2=C(C(=O)O)N3C(=O)C(NC(=O)Cn4cnnn4)C3SC2)s1 (stereo not given)	B6C3F1 mice, B16 melanoma ip, median survival T/C	93 % of control
NCCc1cc(O)c(O)c(O)c1	B6C3F1 mice, B16 melanoma ip, median survival T/C	98 % of control
NNC(=O)c1ccncc1	B6C3F1 mice, B16 melanoma ip, median survival T/C	112 % of control
O=C(O)C1CC(O)CN1 (stereo not given)	B6C3F1 mice, B16 melanoma ip, median survival T/C	101 % of control
